# System: MS2 coat protein
# experimental_details: apparent KD of MS2 coat protein; designed switch direction (-1 OFF switch, 1 ON switch): -1; higher = weaker reporter binding
# condition_details: Eterna round: R95; input ligand: microRNA oligo, concentration not stated
# if value of apparent KD of MS2 coat protein reaches 30 nM, tag true (1); if it stays below, tag false (0)

>  <entry_sequence>
UUUUUCAGGCCAGAUCCUCACAUGAGGAUCACCCAUGUGCUCGUCUGUUUUCGCACUAGCUUUUUUUUGGUAGUGCU [Level Boss var2-15] (puzzle: Sensor v3, turn-off variant 1)

>  <class_assignment>
false (0)

$$$$
>  <entry_sequence>
UAGGAGCAAGGAUAUACGAGGAUAUGGUAGUUUGUAGAGUGACAUGAGGAUCACCCAUGUAGAAGGUGCGUGUG [JR_Exclu2_Sub0100] (puzzle: Exclusion 2)

>  <class_assignment>
true (1)

$$$$
>  <entry_sequence>
GUAUCGUGAGGAUAUCAUGAUUGACUUAAUUUAUGUCAGCGUGAGAAGGCACAUGAGGAUCACCCAUGUGAUUA [Ex4 - 3 - 6] (puzzle: Exclusion 4)

>  <class_assignment>
false (0)

$$$$
>  <entry_sequence>
AGUAGAUCUACGCUUGCGUGGAUCUGCUAUGCAGGUGUUACAUGAGGAUCACCCAUGUCCUCAUUUGUUCGUCUUAU [JL turnoff v2 99.15] (puzzle: Sensor v3, turn-off variant 2)

>  <class_assignment>
true (1)

$$$$
>  <entry_sequence>
AAUAGCAAGCAGAUCCUAAACAUGAGGAUCACCCAUGUGCUCGUCUUGUAAAGUACUAUCACGAAAGUGAUAGUACA [Sensor 3, v1 - 61] (puzzle: Sensor v3, turn-off variant 1)

>  <class_assignment>
true (1)

$$$$
>  <entry_sequence>
GGUCCACAUGAGGAUCACCCAUGUUAGGAUAUCUCGCCCGAGUCCAUAUGGGCCGGGCAGAGAAGGAAUGUGAA [Vevequbi] (puzzle: Exclusion 1)

>  <class_assignment>
false (0)

$$$$

====

# Test system: MS2 coat protein
# experimental_details: apparent KD of MS2 coat protein; designed switch direction (-1 OFF switch, 1 ON switch): -1; higher = weaker reporter binding
# condition_details: input ligand: none
# if value of apparent KD of MS2 coat protein reaches 0.1 µM, tag class 1; if it stays below, tag class 0

>  <entry_sequence>
GUGCUAUGAGGAUAUACGUUGGUGGGCAUCUGUGUGCUCCUACAUGAGGAUCACCCAUGUAGAAGGCAUGUCAC [LRO-Excl2-20] (Eterna round: R96, puzzle: Exclusion 2)

>  <class_assignment>
class 0

$$$$
>  <entry_sequence>
UUUAAGGGAAUUAAGAUCACAUGAGGAUCACCCAUGUAUAUAUAGGAUAUCAGCUCGAUUAGAGCUGAGAAGGAUAUAUACAUA [ExNG3/6-A1] (Eterna round: R96, puzzle: Exclusion NG 3)

>  <class_assignment>
class 1

$$$$
>  <entry_sequence>
AGCCAUGAAGGAUAUACAUGAGGAUCACCCAUGUUGCGGACAGGUUUGAUCGGCGUAGGUAGAAGGUCAAGUAG [Eternabot (L2) Solution 62] (Eterna round: R97, puzzle: Exclusion 3)

>  <class_assignment>
class 0

$$$$
>  <entry_sequence>
UGUCAGAUGGUAGGAUAUCCAUAUCGAGUGACCCUUUCAUAACAUGAGGAUCACCCAUGUUGGUGGGAGAAGGGCCGUAUGGUG [salish99_ExNG02_R04_026] (Eterna round: R96, puzzle: Exclusion NG 2)

>  <class_assignment>
class 0

$$$$
>  <entry_sequence>
UAUGGUUAAGUCAGGAUAUACUCAUAGAAGUCUGUGUAGAAGGGACAUGAGGAUCACCCAUGUAUGGUAGUGUU [Ex4 #47] (Eterna round: R97, puzzle: Brourd's mod of Exclusion 4)

>  <class_assignment>
class 1

$$$$
>  <entry_sequence>
CGGUGUAGAGGAUAUACGUGGAUAUAAGAACAUGAUAAUUUACAUGAGGAUCACCCAUGUAGAAGGCUAUAGCG [JR_Ex2_Sub080] (Eterna round: R97, puzzle: Exclusion 2)

>  <class_assignment>
class 1

$$$$

====

# Test system: MS2 coat protein
# experimental_details: apparent KD of MS2 coat protein; designed switch direction (-1 OFF switch, 1 ON switch): -1; higher = weaker reporter binding
# condition_details: input ligand: FMN 200 uM
quantity_measured: apparent KD of MS2 coat protein

>  <entry_sequence>
AAAGGAGUAGGAUAUGAGCCCAAAUACAUGAGGAUCACCCAUGUCGGGUUCAUGGAGGGCUUAGAAGGAUUUAAAA [Onreridi] (Eterna round: R97, puzzle: Exclusion 5)

>  <result>
25.8 nM

$$$$
>  <entry_sequence>
GCACGGUGAGGAUAUAUAAAUGGGCAUGUCGAGAACCGUUCACAUGAGGAUCACCCAUGUAGAAGGCGCCUGUG [Eternabot (L2) Solution 58] (Eterna round: R97, puzzle: Exclusion 2)

>  <result>
115 nM

$$$$
>  <entry_sequence>
UAUUAGCUUGCGAGAUCCGACAUGAGGAUCACCCAUGUGCUCGUCUUAUAUGGGAGGGAGGGAAAACCCUCCCUCCC [mod-Eli] (Eterna round: R97, puzzle: Sensor, turn-off variant 1)

>  <result>
23.8 nM

$$$$

====

# System: MS2 coat protein
# experimental_details: apparent KD of MS2 coat protein; designed switch direction (-1 OFF switch, 1 ON switch): -1; higher = weaker reporter binding
# condition_details: input ligand: none

>  <entry_sequence>
AACGAGGCAGGAUAUACAUGAGGAUCACCCAUGUGCUUGCAUGGCGUGGGAAGUCAUCGUAGAAGGGCUAUGCC [EX3 #64] (Eterna round: R97, puzzle: Exclusion 3)

>  <result_units>
nM

>  <apparent KD of MS2 coat protein>
283

$$$$
>  <entry_sequence>
GUCUACGCAGGAUAUAUCCCUCAGGACAUGAGGAUCACCCAUGUCUCCUUAUGCCUUCCCAUAGAAGGGCGUAGAA [Eternabot (L1) Solution 82] (Eterna round: R97, puzzle: Exclusion 5)

>  <result_units>
nM

>  <apparent KD of MS2 coat protein>
13.2

$$$$
>  <entry_sequence>
GGGAAGGGAGGAUAUGAGGAAGAGAACAUGAGGAUCACCCAUGUGAGGCCUCAGGAUCGAUCAGAAGGCCCGAUCC [AK-MS2ROC-r4-exclusion5-15] (Eterna round: R97, puzzle: Exclusion 5)

>  <result_units>
nM

>  <apparent KD of MS2 coat protein>
142

$$$$

====

apparent KD of K4 kissing-loop reporter by entry:
# System: K4 kissing-loop RNA reporter;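 also: bound reporter read as fluorescence of individual clusters on recovered sequencing chips by microscopy, with normalized cluster intensities fitted with a binding model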
# experimental_details: apparent KD of K4 kissing-loop reporter; higher = weaker reporter binding
# condition_details: Eterna round: R107; input ligand: none

>  <entry_sequence>
GCUAUGGUUGGAAGGAGCGUUGAAUUGUUGGUAAGAGUGAUGUUCGAUAGUGGAUAGUUGUAGCAGGUAGGUCGCCAACUAUAGC [KL-Arg B27]

>  <apparent KD of K4 kissing-loop reporter, nM>
532

$$$$
>  <entry_sequence>
UGACAUUGCUCAGAUACCAGACAUGAGCAUCAGCCAUGUGCCAAAACGUACUAAAUAAAUGUCCCUUGGCAGCUGAGCAAUGUCU [TheoBX 13]

>  <apparent KD of K4 kissing-loop reporter, nM>
40.7

$$$$
>  <entry_sequence>
AUUGUACAGGGAAGGAGCGUCGACCAGUGAUGUUGGAGUUAAAUACCAGUGAUGUUGGUUAGGCAGGUAGGUCGCCCUCAAGUAG [#10 K4 Arginine B Exclusion]

>  <apparent KD of K4 kissing-loop reporter, nM>
141

$$$$
>  <entry_sequence>
AAGUCAUACAGAAGGAGCGUGUUUUAUAAUUUAUUUUCAUGAUCGAGUGAUGUUCGAUAUACACAGGUAGGUCGCUGUAUAAUAA [JR_SSArginiB_Sub007]

>  <apparent KD of K4 kissing-loop reporter, nM>
121

$$$$

====

# System: MS2 coat protein
# experimental_details: apparent KD of MS2 coat protein; designed switch direction (-1 OFF switch, 1 ON switch): 1; higher = weaker reporter binding
# condition_details: input ligand: microRNA oligo, concentration not stated
apparent KD of MS2 coat protein by entry:
quantity_measured: apparent KD of MS2 coat protein (µM)

>  <entry_sequence>
UUGCGGGAUUAAGGAUAUUGAGUACAUAUGUUUAACAUGAGGAUCACCCAUGUGGGUUGCGGUAUCGAGAAGGUAACUUACUAC [salish99_SSNG2_r04_804] (Eterna round: R96, puzzle: Same State NG 2)

>  <quantity_measured>
apparent KD of MS2 coat protein

>  <quantitative_result>
0.0793

$$$$
>  <entry_sequence>
GUGGAGGGUUGAGGAUAUUGGUUGCAUAUGUUUAACAUGAGGAUCACCCAUGUGGGUUGCGGUUUCGAGAAGGUAGGUUGCUGG [salish99_SSNG2_r04_043] (Eterna round: R96, puzzle: Same State NG 2)

>  <quantity_measured>
apparent KD of MS2 coat protein

>  <quantitative_result>
0.0822

$$$$
>  <entry_sequence>
GUAAUCGUUAUAGGAUAUCAUGAGGAUUACCCAUGAGAAGGGUGAUCUCGAUCCAUAUUCAGAAAAUGAAUGUGGAUAGAUUGC [Omei NG1 A v2] (Eterna round: R96, puzzle: Same State NG 1)

>  <quantity_measured>
apparent KD of MS2 coat protein

>  <quantitative_result>
0.292

$$$$
>  <entry_sequence>
UUCCCAUCGGGAGGAUAUGGUUCCUUAUUGGUUCUAGAAGGUCCAACAUGAGGAUCACCCAUGUGGGAGUGGUCUAAUGACCUC [SS NG10LRO05] (Eterna round: R96, puzzle: Same State NG 1)

>  <quantity_measured>
apparent KD of MS2 coat protein

>  <quantitative_result>
0.256

$$$$
>  <entry_sequence>
ACAUGAGACCAAGGAUAUUUUGUACCUACAUGUGACAUGAGGAUCACCCAUGUGGUAAGUAUGAGAAAGAAGGUGGAGAUAUGU [Equivalence 22 - Jieux - Same State NG 2] (Eterna round: R96, puzzle: Same State NG 2)

>  <quantity_measured>
apparent KD of MS2 coat protein

>  <quantitative_result>
0.0225

$$$$

Reference source for all entries: the supplement of paper PMC9170038
